metric: O2 permeability

• *c1ccc(Cc2ccc(N3C(=O)c4ccc(C(c5ccc6c(c5)C(=O)N(*)C6=O)(C(F)(F)F)C(F)(F)F)cc4C3=O)c(C)c2)cc1C (repeat unit) = 2.51 Barrer
• *O[Si](C)(C)CCCCCCCC[Si](*)(C)C (repeat unit) = 237 Barrer
• *c1ccc(C)c(-c2cc(C)c(-c3cc(*)ccc3C)cc2C)c1 (repeat unit) = 12 Barrer
• *c1ccc(C(C)(C)c2cccc(N3C(=O)c4ccc(C(c5ccc6c(c5)C(=O)N(*)C6=O)(C(F)(F)F)C(F)(F)F)cc4C3=O)c2)cc1 (repeat unit) = 2.89 Barrer

###

Documented H2 permeability across a set of molecules
metric: H2 permeability (Barrer)

- *c1ccccc1Oc1ccc2ccccc2c1-c1c(Oc2ccccc2N2C(=O)c3ccc(C(c4ccc5c(c4)C(=O)N(*)C5=O)(C(F)(F)F)C(F)(F)F)cc3C2=O)ccc2ccccc12 (repeat unit): 6.86
- *Oc1ccc(C(C)(C)c2ccc(OC(=O)c3cc(C(*)=O)cc(C(C)(C)C)c3)c(C(C)C)c2)cc1C(C)C (repeat unit): 41.4
- *C(=C(*)c1ccc2c(c1)C(C)(C)c1ccccc1-2)c1ccc(Br)cc1 (repeat unit): 8700
- *C(=C(*)c1ccc2c(c1)C(C)(C)c1ccccc1-2)c1ccc([Si](C)(C)C)cc1 (repeat unit): 1040
- *Oc1ccc(C(=O)c2ccc(-c3ccc(C(=O)c4ccc(Oc5ccc(S(=O)(=O)c6ccc(*)cc6)cc5)cc4)cc3)cc2)cc1 (repeat unit): 8.38
- *Oc1ccc(-c2nn(-c3ccc(S(=O)(=O)c4ccc(*)cc4)cc3)c(=O)c3ccccc23)cc1 (repeat unit): 2.4
- *c1ccc(Cc2ccc(N3C(=O)c4ccc(C(c5ccc6c(c5)C(=O)N(*)C6=O)(C(F)(F)F)C(F)(F)F)cc4C3=O)cc2)cc1 (repeat unit): 44.7
- *Oc1ccc(C2(c3ccc(Oc4ccc(S(=O)(=O)c5ccc(*)cc5)cc4)c(C)c3)OC(=O)c3ccccc32)cc1C (repeat unit): 10.8
- *Nc1ccc(*)cc1 (repeat unit): 3.66
- *Oc1cc2c(cc1O*)C1(c3ccccc3-c3cc4c(cc31)Oc1c(C#N)c(*)c(*)c(C#N)c1O4)c1cc(C)c(C)cc1-2 (repeat unit): 4420
- *c1ccc2c(c1)C1c3ccccc3C2c2cc(N3C(=O)c4ccc(C(c5ccc6c(c5)C(=O)N(*)C6=O)(C(F)(F)F)C(F)(F)F)cc4C3=O)ccc21 (repeat unit): 329
- *Oc1ccc(C(C)(C)c2ccc(OC(=O)c3cc(C(*)=O)cc(C(C)(C)C)c3)c(C)c2)cc1C (repeat unit): 27.1
- *c1ccc(Oc2ccc(N3C(=O)c4cc5c(cc4C3=O)S(=O)(=O)c3cc4c(cc3S5(=O)=O)C(=O)N(*)C4=O)cc2)cc1 (repeat unit): 19
- */C(C)=C(/*)c1ccc([Si](C)(C)C)cc1 (repeat unit): 510
- *c1ccc(Oc2ccc(C(c3ccc(Oc4ccc(N5C(=O)c6ccc(C(c7ccc8c(c7)C(=O)N(*)C8=O)(C(F)(F)F)C(F)(F)F)cc6C5=O)cc4)cc3)(C(F)(F)F)C(F)(F)F)cc2)cc1 (repeat unit): 46.7
- *Nc1ccc(S(=O)(=O)c2ccc(NC(=O)c3cc(C(*)=O)cc(-c4ccccc4)c3)cc2)cc1 (repeat unit): 7.6
- *Oc1c(C)cc(C(C)(C)c2cc(C)c(OC(=O)c3cccc(C(*)=O)c3)c(C)c2)cc1C (repeat unit): 38.6
- *Oc1ccc(-c2c(-c3ccc(C#N)cc3)c(-c3ccc(C#N)cc3)c(-c3ccc4c(c3)Oc3c(C#N)c(*)c(*)c(C#N)c3O4)c(-c3ccc(C#N)cc3)c2-c2ccc(C#N)cc2)cc1O* (repeat unit): 734
- *=CC1CC(C=*)C2C(=O)N(C3CCCCC3)C(=O)C12 (repeat unit): 16.1
- *C(=C(*)c1ccc2c(c1)C1(CC1)c1ccccc1-2)c1ccccc1 (repeat unit): 1400
- *c1ccc(C(c2ccc(-c3nc4cc(C(c5ccc6oc(*)nc6c5)(C(F)(F)F)C(F)(F)F)ccc4o3)cc2)(C(F)(F)F)C(F)(F)F)cc1 (repeat unit): 3900
- *Oc1ccc(S(=O)(=O)c2ccc(Oc3ccc4cc(*)ccc4c3)cc2)cc1 (repeat unit): 7.25
- *=CC1CC(C=*)C2C1C([Si](O[Si](C)(C)C)(O[Si](C)(C)C)O[Si](C)(C)C)C2[Si](O[Si](C)(C)C)(O[Si](C)(C)C)O[Si](C)(C)C (repeat unit): 690
- *c1ccc(*)c(C(=O)c2ccccc2)c1 (repeat unit): 27.4
- *c1c(C)c(C)c(N2C(=O)c3ccc(C(=O)c4ccc5c(c4)C(=O)N(*)C5=O)cc3C2=O)c(C)c1C (repeat unit): 108
- *C(C(=O)OC(C)C)C(*)C(=O)OC(C)CC(C)C (repeat unit): 156
- *Oc1ccc(N2C(=O)CCC23CCC(=O)N3c2ccc(Oc3c(F)c(F)c(COC(C4CCCC(C(OCc5c(F)c(F)c(*)c(F)c5F)(C(F)(F)F)C(F)(F)F)C4)(C(F)(F)F)C(F)(F)F)c(F)c3F)cc2)cc1 (repeat unit): 21
- *C=CCCC* (repeat unit): 415
